Test system: PPARg:RXRa 270nM:90nM, anti-RXR (NR concentration 270 nM, RXRa partner concentration 90 nM)
Procedure Details: PBM binding z-score (relative to random genomic background probes); higher = stronger binding; sequences stand for … in GC…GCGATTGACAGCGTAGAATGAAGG
Recorded Metric: PBM binding z-score
// print number alone

Worked set:
ACAGACAGGTGATGAAGATAACTCAGGCTATCAT; -0.057
TCTCGGAGGACGCGAAGGTCAGAGCTTTCCAGAG; 1.06
TAGCCTAGTTCAGATCGGGCCAGTATACGCTATA; -0.325
ATCGAAAAGTCGTGAGGTGAGTATACAGAAAGGC; -0.104
TGGAGTAGGTTAGTCGGGGCATTCAGCCAACATA; 1.32
ACTTACGTGTCAACGAGGTTATAGCACGCGTATA; 0.653
CCGACTGGGGCATAACGTTACCATAAGCCAGCCC; 0.484
GGAACGATGGCAAAGTTGATAGCATCTGTCGACG; 3.3

Q) Item CACGAAAGGTCGGTTGAGGTGAGTATACGGATAA has what recorded PBM binding z-score?
A) 1.36

Q) Item GCATATAGGTAATACCAGGTGAAAGTCCGATTGT has what recorded PBM binding z-score?
A) 1.19

Q) Item ATCTCTAGGTAACCAAGTTCAGTTAATGCCGAAC has what recorded PBM binding z-score?
A) 1.1

Q) Item TCTTGTAGATCAATAGAGGTTAAGCAAGTGCGCT has what recorded PBM binding z-score?
A) 1.71

###

System: PXR:RXRa (NR concentration 270 nM, RXRa partner concentration 90 nM)
Procedure Details: PBM binding z-score (relative to random genomic background probes); higher = stronger binding; sequences stand for … in GC…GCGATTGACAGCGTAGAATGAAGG
Recorded Metric: PBM binding z-score
// print number alone

Worked set:
ATCTCTAGGTGAAGTTCAGTGAAAGATCGATAGA; 0.872
ATTTCTAGGTAAAGATAGTTCAGTGAATGCAAAT; 1.08
TCATATAGGTAAAGGTCAAAGTCGAACGATATGA; 5.54
ATATGTAGCTTACATCCGGGTCATTCAGGCTATG; 2.42
GCTCGGAGGACAAGATCAGAGCTTTGTCCGTAGA; -0.776
CCTTACGGGTCACTGACAGGTAATAGCATTTGGA; 2.95
CGAACGAGGGCATAAGTTGATAGCAAATGCCGAT; 0.19
ACTAGTTGGTCAGCTGCGGTCACACACAATTCGG; 1.27

Q) Please tell me: PBM binding z-score of TCTTGTAGATCAGTAGGTTAAGAAAGCTGGCCAA , system PXR:RXRa (NR concentration 270 nM, RXRa partner concentration 90 nM)?
A) 0.448

Q) Please tell me: PBM binding z-score of CGAACTAGGTCATTGACAGGACAGTAAATAGTAA , system PXR:RXRa (NR concentration 270 nM, RXRa partner concentration 90 nM)?
A) 1.89

###

Test system: LXRb:RXRa (NR concentration 270 nM, RXRa partner concentration 90 nM)
Procedure Details: PBM binding z-score (relative to random genomic background probes); higher = stronger binding; sequences stand for … in GC…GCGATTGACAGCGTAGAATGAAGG
Label t when PBM binding z-score is at or above 1; otherwise label f.

// known answers, use as guide
TCGAGTAGGTTAGTCGGGGCATTCGGCCAACATA; f
ATCTCTGGGTAACAAGTTCAGTGAAAGAGAGGAC; f
CCTACTCGGCCAAAGGTCATTGATTCCAATGCTC; t
ATCTCTAGGTAAAGATAGTTTAGTGAATGCAAAT; f
ATATGTAGGTTAAGGGTCATTCATGTTGGTTCGC; t
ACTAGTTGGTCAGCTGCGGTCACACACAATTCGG; f

Q) API: above_or_equal(metric=PBM binding z-score, cutoff=1) for item GCATATAGGTAATACAAGGTGAATGTCCGATTGT
A) f
